Experimental target: UniProt P11473
Sequence (P11473 whole entry): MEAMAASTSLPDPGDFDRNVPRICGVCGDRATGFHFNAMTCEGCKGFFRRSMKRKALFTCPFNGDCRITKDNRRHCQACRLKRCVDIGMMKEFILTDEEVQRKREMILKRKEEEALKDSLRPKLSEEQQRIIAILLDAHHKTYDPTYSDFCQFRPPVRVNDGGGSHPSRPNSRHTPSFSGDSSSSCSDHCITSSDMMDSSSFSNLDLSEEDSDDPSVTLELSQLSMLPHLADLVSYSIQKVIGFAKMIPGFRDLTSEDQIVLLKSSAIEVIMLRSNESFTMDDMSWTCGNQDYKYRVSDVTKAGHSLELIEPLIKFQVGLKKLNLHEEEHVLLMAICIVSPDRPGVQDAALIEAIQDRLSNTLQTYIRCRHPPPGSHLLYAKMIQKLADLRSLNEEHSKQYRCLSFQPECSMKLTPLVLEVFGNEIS
Assay method text: Vitamin D receptor activation (VDR), transcription activation assay in COS cells
Particulars: COS cells cotransfected with human VDR and VDRE3-luciferase reporter; read-out: VDR act. (ED50, nanomolar)
Quantity: EC50 (nM)
Give just the number in nM; leave the unit off.

Some solved entries appear below for comparison.
1) C=C1/C(=C\C=C2/CCC[C@]3(C)[C@@H]([C@H](C)CNC(=O)CC(C)(O)C(F)(F)F)CC[C@@H]23)C[C@@H](O)C[C@@H]1O (mixture of isomers) [D] ... 1.6
2) C[C@H](CNC(=O)CC(O)(C(F)(F)F)C(F)(F)F)[C@H]1CCC[C@H]2/C(=C/C=C3C[C@@H](O)C[C@H](O)C3)CCC[C@]12C [H] ... 0.5
3) C[C@@H](CNC(=O)CC(C)(O)C(F)(F)F)[C@H]1CC[C@H]2/C(=C/C=C3C[C@@H](O)C[C@H](O)C3)CCC[C@]12C (mixture of isomers) [compound E] ... 0.35
4) C[C@H](CNC(=O)C[C@@](C)(O)C(F)(F)F)[C@H]1CC[C@H]2/C(=C/C=C3C[C@@H](O)C[C@H](O)C3)CCC[C@]12C [compound J] ... 2.1
5) C=C1/C(=C/C=C2\CCC[C@]3(C)[C@@H]([C@H](C)CNC(=O)CC(C)(O)C(F)(F)F)CC[C@@H]23)C[C@@H](O)C[C@@H]1O (mixture of isomers) [I] ... 40

Qu. What value of EC50 has been recorded for this entry: C[C@H](CNC(=O)CC(O)(C(F)(F)F)C(F)(F)F)[C@H]1CC[C@H]2/C(=C/C=C3C[C@@H](O)C[C@H](O)C3)CCC[C@]12C [A]
Ans. 0.47

Qu. Again, but for C[C@H](CNC(=O)CC(C)(O)C(F)(F)F)[C@H]1CC[C@H]2/C(=C/C=C3C[C@@H](O)C[C@H](O)C3)CCC[C@]12C (mixture of isomers) [compound B]
Ans. 1.7

Qu. Again, but for C[C@H](CNC(=O)C[C@@](C)(O)C(F)(F)F)[C@H]1CCC[C@H]2/C(=C/C=C3C[C@@H](O)C[C@H](O)C3)CCC[C@]12C [F]
Ans. 0.6

Qu. Again, but for C[C@H](CNC(=O)C[C@](C)(O)C(F)(F)F)[C@H]1CCC[C@H]2/C(=C/C=C3C[C@@H](O)C[C@H](O)C3)CCC[C@]12C [G]
Ans. 0.18

Qu. Again, but for C[C@H](CNC(=O)C(C)(C)O)[C@H]1CC[C@H]2/C(=C/C=C3C[C@@H](O)C[C@H](O)C3)CCC[C@]12C [C]
Ans. 6.4
